Target: T1, PUF4 RNA-binding domain (Saccharomyces cerevisiae, UniProt P25339 537-888)
T1 sequence: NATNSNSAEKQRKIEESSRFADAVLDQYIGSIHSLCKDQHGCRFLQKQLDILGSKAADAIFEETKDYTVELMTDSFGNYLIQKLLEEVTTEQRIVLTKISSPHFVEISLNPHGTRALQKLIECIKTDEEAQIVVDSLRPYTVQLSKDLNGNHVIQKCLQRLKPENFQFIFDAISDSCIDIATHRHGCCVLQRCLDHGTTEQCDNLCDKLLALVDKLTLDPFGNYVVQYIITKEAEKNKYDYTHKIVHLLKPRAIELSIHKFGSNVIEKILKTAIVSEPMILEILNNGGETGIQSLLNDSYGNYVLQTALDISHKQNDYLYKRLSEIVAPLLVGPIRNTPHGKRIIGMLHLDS
Assay: Mg; RNA-MaP; 20 mM Na-HEPES pH 7.4, 30 mM KOAc, 0.75 mM MgCl2, 0.1% Tween-20, 5% glycerol, 0.1 mg/mL BSA, 2 mM DTT; 25 C; 0.0125-409.6 nM protein
Conditions: tags: N-His6-TEV cleaved; C-SNAP kept, Cy3B-labelled; label: tethered on chip by stalled RNA polymerase
// reported log10 Kd per item
Base-10 log of Kd, unit nM.

Some solved entries appear below for comparison.
{"columns": ["Binder", "log10 Kd"],
 "data": [
  ["Ic_S2_P4E.1_K4.1_C4.1_H4.1_A4.1_[A6G]_F4.1_[T8G]_[A9T]_T4.1 (ssRNA) RNA: UUUGAUUAAUAUGAUAUCGUUCUUUCUUGUAUGUGUUUCUUUCUCGAUAUCAUAUUAAUCUUU", 1.23],
  ["UCUCUUACUGUAUUAUUAAAUCUCUU (ssRNA) [Id_ii_S1_P5E.2_K5.1_C5.2_[C-2A]_[T-1C]_H5.1_A5.1_F5.1_T5.2_[T11A]]", 1.38],
  ["Id_ii_S2_P4E.3_K4.2_C4.2_[C-2T]_[T-1C]_H4.2_A4.1_F4.1_T4.2_[G10C]_[T11A] (ssRNA) RNA: UUUGAUUAAUAUGAUAUCGUUCUUUCUUCUAUAUAUUACAUUCUUUCUCGAUAUCAUAUUAAUCUUU", 1.06],
  ["UCUCUUUUUACACUAUUAGUUCUCUU (ssRNA) [Id_iii_S1_P4E.7_K4.3_C4.3_[C-2T]_H4.3_A4.1_F4.1_T4.2]", 3.23]
]}

As a next step, examine the binder that follows.
Problem: May I ask what log10 Kd has been recorded for UCUCUUUGUAAUUUUCUCUCUU (ssRNA) [Ic_S1_P5E.1_K5.1_C5.1_H5.1_A5.1_[T5A]_[A7T]_F5.1_[A10C]_T5.1] ?
Result: 1.47
